- System: MCF7
- ASSAY_NOTES: Cytotoxicity against Homo sapiens (human) MCF7 cells after 48 hr by SRB assay
- Format: functional
- CONDITION_SUMMARY: MCF7, 48 h
ASSAY_METRIC: GI50

Would you please look over these solved cases?
>>> df
                                   compound  assay_metric  recorded_measurement
0  O=C(NC1CCCCC1)NS(=O)(=O)c1ccc(-n2nc3c(c2-c2cccs2)Cc2ccccc2-3)cc1          GI50              > 100 µM
1  O=C(c1ccccc1)n1c(-c2ccccc2)cs/c1=N\S(=O)(=O)c1ccc(N2N=C3c4ccccc4CC3C2c2cccs2)cc1 (stereo unspecified)          GI50              > 100 µM
2  NS(=O)(=O)c1ccc(N2N=C3c4ccccc4CC3C2c2cccs2)cc1 (stereo unspecified)          GI50              > 100 µM
3  O=C1CS/C(=N\S(=O)(=O)c2ccc(N3N=C4c5ccccc5CC4C3c3cccs3)cc2)N1C(=O)c1ccccc1 (stereo unspecified)          GI50              > 100 µM
4  O=C(NC(=S)NS(=O)(=O)c1ccc(N2N=C3c4ccccc4CC3C2c2cccs2)cc1)c1ccccc1 (stereo unspecified)          GI50              > 100 µM

Alright, here's another compound for you.
What does the data say about its GI50? Entry: `NS(=O)(=O)c1ccc(-n2nc3c(c2-c2cccs2)Cc2ccccc2-3)cc1` > 100 µM
